tested-on: FGFR1 (UniProt P11362)
Sequence (P11362 whole entry, looked up): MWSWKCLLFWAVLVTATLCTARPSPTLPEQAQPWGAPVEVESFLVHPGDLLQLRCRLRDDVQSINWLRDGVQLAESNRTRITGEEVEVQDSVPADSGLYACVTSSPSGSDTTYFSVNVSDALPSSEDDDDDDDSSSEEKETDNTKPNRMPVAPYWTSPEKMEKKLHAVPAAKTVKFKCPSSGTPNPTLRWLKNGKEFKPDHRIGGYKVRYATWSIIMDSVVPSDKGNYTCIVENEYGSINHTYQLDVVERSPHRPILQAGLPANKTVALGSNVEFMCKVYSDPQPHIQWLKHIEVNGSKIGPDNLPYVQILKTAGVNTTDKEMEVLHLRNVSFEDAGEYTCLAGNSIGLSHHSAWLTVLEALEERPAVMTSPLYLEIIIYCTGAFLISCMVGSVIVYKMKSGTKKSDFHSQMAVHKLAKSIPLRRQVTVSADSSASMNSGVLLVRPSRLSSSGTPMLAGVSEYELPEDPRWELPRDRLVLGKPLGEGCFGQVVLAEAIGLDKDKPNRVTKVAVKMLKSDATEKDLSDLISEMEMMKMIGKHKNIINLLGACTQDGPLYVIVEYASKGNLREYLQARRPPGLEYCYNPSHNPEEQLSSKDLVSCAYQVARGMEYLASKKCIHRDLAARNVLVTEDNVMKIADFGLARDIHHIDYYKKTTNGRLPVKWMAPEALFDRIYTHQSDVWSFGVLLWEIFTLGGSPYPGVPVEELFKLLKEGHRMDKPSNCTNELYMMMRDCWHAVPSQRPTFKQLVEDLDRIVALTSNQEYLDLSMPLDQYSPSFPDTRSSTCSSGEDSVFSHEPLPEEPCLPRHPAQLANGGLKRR
protocol-description: phosphorylation enrichment, bacterial display (enrichment ratio); higher = better substrate or ligand; peptides without Tyr show the background;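 also: 11-residue human phosphosite peptides and single-mutation variants displayed on the E. coli surface, counted by deep sequencing, each peptide's frequency after selection divided by its frequency in the unselected input library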;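 also: frequency after pTyr selection over input frequency; kinase dosed for 20-30% of maximal phosphorylation in three min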
# phosphorylation enrichment >= 0.5 gives true, anything below gives false

Below, 10 sequences whose answers are already recorded.
# sequence-text, discrete-label
records = [
    ("AGQEDCDRLRP [CDC42_Y64_Y64C]", "false"),
    ("LEDDVYRKTCT [XPA_Y257_M256V]", "true"),
    ("ARSMEYLAEQK [MST1R_Y1198]", "false"),
    ("FSSLGYPPPEG [ZSWIM4_Y87_YF]", "false"),
    ("SSREEYFIGGG [GYPC_Y126_K124E]", "true"),
    ("PARLEYCENEK [IRS1_Y46_Y47C]", "true"),
    ("FADIAYNYRHR [PAH_Y166_G171R]", "false"),
    ("ALHHPYGCDVE [ABL2_Y80_R78H]", "false"),
    ("GEHSIYSTVNN [CD55_Y266_C267S]", "true"),
    ("AFRHGYFDEEM [PLEC_Y2971_R2969H_YF]", "true"),
]

Determine whether this sequence has phosphorylation enrichment no lower than 0.5: SAGSSYSISSI [PAX5_Y179_G183S]
false

Determine whether this sequence has phosphorylation enrichment no lower than 0.5: KLIMEYLPFGS [JAK2_Y931_YF]
false

Determine whether this sequence has phosphorylation enrichment no lower than 0.5: ETKKQYNSFTF [TMED3_Y85_D86N_YF]
false

Determine whether this sequence has phosphorylation enrichment no lower than 0.5: DDLTDYLMKIL [ACTA1_Y190_R185D]
true

Determine whether this sequence has phosphorylation enrichment no lower than 0.5: SGVNKYSTAFG [GJB3_Y16]
false

Determine whether this sequence has phosphorylation enrichment no lower than 0.5: YSTDCYRVGGH [NTRK2_Y707_Y706C]
true

Determine whether this sequence has phosphorylation enrichment no lower than 0.5: WFPSTYVEEDE [VAV3_Y842]
true

Determine whether this sequence has phosphorylation enrichment no lower than 0.5: SIRFNYLLDVL [FGFR4_Y237_YF]
false

Determine whether this sequence has phosphorylation enrichment no lower than 0.5: FLAVGYHKTHI [IDS_Y225_P228T]
false

Determine whether this sequence has phosphorylation enrichment no lower than 0.5: FVHDNYVIWRT [CPS1_Y1450_R1453W]
true

Measured values drawn from the supplement of paper PMC10065799 for this set.
